AUC at 24 h: recorded values
protocolText: AUC in human at 20 to 80 mg, po QD after 24 hrs
Type: ADME, organism-based
assayConditions: in vivo
The figure you give is taken to be in µM·h; do not add the unit.

compound | observedMeasurement
CC(C)n1c(/C=C/C(O)CC(O)CC(=O)O)c(-c2ccc(F)cc2)c2ccccc21 (configuration not stated) | 1.49

Need AUC at 24 h, item CCCc1nc2c(C)cc(-c3nc4ccccc4n3C)cc2n1Cc1ccc(-c2ccccc2C(=O)O)cc1 3.57

====

protocolText: AUC in human at 400 to 1200 mg, po TID after 8 hrs
Type: ADME, organism-based
assayConditions: in vivo
assayEndpoint: AUC at 8 h (µM·h)
The figure you give is taken to be in µM·h; do not add the unit.

Need AUC at 8 h, item CC(C)(C)NC(=O)[C@@H]1C[C@@H]2CCCC[C@@H]2CN1C[C@@H](O)[C@H](Cc1ccccc1)NC(=O)[C@H](CC(N)=O)NC(=O)c1ccc2ccccc2n1 9.69

====

concentration at 24 h: recorded values
protocolText: Drug concentration at steady state in human at 15 to 60 mg, po QD after 24 hrs
Type: ADME, organism-based
assayConditions: in vivo, read-out: Css
The figure you give is taken to be in nM; do not add the unit.

molecule | readoutUnit | concentration at 24 h
CCc1ccc(CCOc2ccc(CC3SC(=O)NC3=O)cc2)nc1 (configuration not stated) | nM | 935

Switching to the query record.
Need concentration at 24 h, item Cc1ccccc1C(=O)Nc1ccc(C(=O)N2CCCC(O)c3cc(Cl)ccc32)c(C)c1 (configuration not stated) 396

====

testedSystem: Bile salt export pump (Homo sapiens, UniProt O95342)
Sequence (O95342 whole entry): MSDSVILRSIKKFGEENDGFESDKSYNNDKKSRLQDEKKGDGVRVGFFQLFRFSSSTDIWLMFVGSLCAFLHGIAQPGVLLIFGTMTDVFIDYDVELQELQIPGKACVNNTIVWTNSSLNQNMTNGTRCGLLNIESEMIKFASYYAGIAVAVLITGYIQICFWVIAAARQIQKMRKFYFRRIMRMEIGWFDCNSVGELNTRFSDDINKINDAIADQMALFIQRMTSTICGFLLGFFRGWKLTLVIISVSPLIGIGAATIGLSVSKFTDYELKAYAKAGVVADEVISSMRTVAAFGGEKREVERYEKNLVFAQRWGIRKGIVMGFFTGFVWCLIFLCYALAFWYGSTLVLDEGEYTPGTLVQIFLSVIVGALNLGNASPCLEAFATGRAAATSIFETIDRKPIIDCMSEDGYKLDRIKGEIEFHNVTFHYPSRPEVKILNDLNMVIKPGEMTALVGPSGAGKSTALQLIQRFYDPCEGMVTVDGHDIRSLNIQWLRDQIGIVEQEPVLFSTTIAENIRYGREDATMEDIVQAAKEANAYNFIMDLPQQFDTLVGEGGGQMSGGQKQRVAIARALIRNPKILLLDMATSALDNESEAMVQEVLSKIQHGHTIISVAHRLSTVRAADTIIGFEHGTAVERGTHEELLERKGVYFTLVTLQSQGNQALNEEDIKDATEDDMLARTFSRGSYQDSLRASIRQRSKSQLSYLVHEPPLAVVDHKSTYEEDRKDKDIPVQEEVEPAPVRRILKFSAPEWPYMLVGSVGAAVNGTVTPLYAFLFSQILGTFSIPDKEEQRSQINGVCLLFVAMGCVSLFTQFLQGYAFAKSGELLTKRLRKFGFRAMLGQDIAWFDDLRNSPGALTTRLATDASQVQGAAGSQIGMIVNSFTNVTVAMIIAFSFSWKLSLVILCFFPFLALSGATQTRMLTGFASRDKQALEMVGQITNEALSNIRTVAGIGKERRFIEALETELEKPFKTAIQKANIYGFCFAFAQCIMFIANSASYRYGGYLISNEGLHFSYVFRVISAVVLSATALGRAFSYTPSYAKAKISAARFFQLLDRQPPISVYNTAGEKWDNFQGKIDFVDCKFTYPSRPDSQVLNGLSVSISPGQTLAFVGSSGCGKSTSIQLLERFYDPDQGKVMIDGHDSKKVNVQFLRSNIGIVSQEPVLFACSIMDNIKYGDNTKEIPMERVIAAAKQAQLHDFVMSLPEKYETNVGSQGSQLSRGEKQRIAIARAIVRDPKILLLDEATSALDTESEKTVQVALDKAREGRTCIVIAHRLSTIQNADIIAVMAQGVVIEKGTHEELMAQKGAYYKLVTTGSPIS
protocolText: Inhibition of human BSEP overexpressed in Sf9 cell membrane vesicles assessed as uptake of [3H]-taurocholate in presence of ATP measured after 15 to 20 mins by membrane vesicle transport assay
Counter-ions that a name gives are not always drawn.
assayEndpoint: IC50

Consider the worked cases shown below.
molecule | observedMeasurement
COc1ccc2c(c1)C(=O)N(CCc1ccc(S(=O)(=O)NC(=O)NC3CCCCC3)cc1)C(=O)C2(C)C [GLIQUIDONE] | 11.6 µM
C=CCc1ccccc1OCC(O)CNC(C)C (stereo not given) [ALPRENOLOL] | > 133 µM
CCCN1C[C@H](CSC)C[C@@H]2c3cccc4[nH]cc(c34)C[C@H]21 [PERGOLIDE MESYLATE] | > 133 µM
CN1C(C(=O)Nc2ccccn2)=C(O)c2ccccc2S1(=O)=O [PIROXICAM] | > 133 µM
NS(=O)(=O)Cc1noc2ccccc12 [ZONISAMIDE] | > 133 µM
CCN(CCO)CCCC(C)Nc1ccnc2cc(Cl)ccc12 (stereo not given) [HYDROXYCHLOROQUINE SULFATE] | > 133 µM
CC(C)C[C@H](NC(=O)[C@@H](COC(C)(C)C)NC(=O)[C@H](Cc1ccc(O)cc1)NC(=O)[C@H](CO)NC(=O)[C@H](Cc1c[nH]c2ccccc12)NC(=O)[C@H](Cc1cnc[nH]1)NC(=O)[C@@H]1CCC(=O)N1)C(=O)N[C@@H](CCCNC(=N)N)C(=O)N1CCC[C@H]1C(=O)NNC(N)=O [GOSERELIN ACETATE] | > 133 µM
COc1cc(NS(C)(=O)=O)ccc1Nc1c2ccccc2nc2ccccc12 [AMSACRINE] | > 133 µM

Need IC50, item CC(=O)N(CC(O)CO)c1c(I)c(C(=O)NCC(O)CO)c(I)c(C(=O)NCC(O)CO)c1I (stereo not given) [IOHEXOL] > 133 µM

Need IC50, item COc1cc(C)c(/C=C/C(C)=C/C=C/C(C)=C/C(=O)O)c(C)c1C [ACITRETIN] 38.2 µM

Need IC50, item Cc1ccc(C(=O)Nc2ccc(S(=O)(=O)O)c3cc(S(=O)(=O)O)cc(S(=O)(=O)O)c23)cc1NC(=O)c1cccc(NC(=O)Nc2cccc(C(=O)Nc3cc(C(=O)Nc4ccc(S(=O)(=O)O)c5cc(S(=O)(=O)O)cc(S(=O)(=O)O)c45)ccc3C)c2)c1 [SURAMIN] > 133 µM

Need IC50, item Cc1cccc(C)c1OCC(C)N (stereo not given) [MEXILETINE] > 133 µM

Need IC50, item C=CC(N)CCC(=O)O (stereo not given) [VIGABATRIN] > 133 µM

Need IC50, item COc1cc(N)c(Cl)cc1C(=O)NC1CCN(CCCOc2ccc(F)cc2)CC1OC.O (stereo not given) [CISAPRIDE MONOHYDRATE] 22 µM

Need IC50, item CCN1CCCC1CNC(=O)c1cc(S(=O)(=O)CC)c(N)cc1OC (stereo not given) [AMISULPRIDE] > 133 µM

====

protocolText: Drug concentration at steady state in human at 200 mg, po Q3h measured after 3 hrs
Assay type: ADME, organism-based
assayConditions: in vivo, read-out: Css
assayEndpoint: concentration at 3 h (nM)
The figure you give is taken to be in nM; do not add the unit.

Need concentration at 3 h, item CCN(CC)C(=O)/C(C#N)=C/c1cc(O)c(O)c([N+](=O)[O-])c1 [ENTACAPONE] 1760

====

protocolText: AUC in human at 100 to 200 mg, po QD after 24 hrs
Assay type: ADME, organism-based
assayConditions: in vivo
assayEndpoint: AUC at 24 h (µM·h)
The figure you give is taken to be in µM·h; do not add the unit.

Need AUC at 24 h, item CCc1oc2ccccc2c1C(=O)c1cc(Br)c(O)c(Br)c1 45

====

IC50: recorded values
testedSystem: ATP-binding cassette sub-family C member 3 (Homo sapiens)
Sequence (O15438 whole entry): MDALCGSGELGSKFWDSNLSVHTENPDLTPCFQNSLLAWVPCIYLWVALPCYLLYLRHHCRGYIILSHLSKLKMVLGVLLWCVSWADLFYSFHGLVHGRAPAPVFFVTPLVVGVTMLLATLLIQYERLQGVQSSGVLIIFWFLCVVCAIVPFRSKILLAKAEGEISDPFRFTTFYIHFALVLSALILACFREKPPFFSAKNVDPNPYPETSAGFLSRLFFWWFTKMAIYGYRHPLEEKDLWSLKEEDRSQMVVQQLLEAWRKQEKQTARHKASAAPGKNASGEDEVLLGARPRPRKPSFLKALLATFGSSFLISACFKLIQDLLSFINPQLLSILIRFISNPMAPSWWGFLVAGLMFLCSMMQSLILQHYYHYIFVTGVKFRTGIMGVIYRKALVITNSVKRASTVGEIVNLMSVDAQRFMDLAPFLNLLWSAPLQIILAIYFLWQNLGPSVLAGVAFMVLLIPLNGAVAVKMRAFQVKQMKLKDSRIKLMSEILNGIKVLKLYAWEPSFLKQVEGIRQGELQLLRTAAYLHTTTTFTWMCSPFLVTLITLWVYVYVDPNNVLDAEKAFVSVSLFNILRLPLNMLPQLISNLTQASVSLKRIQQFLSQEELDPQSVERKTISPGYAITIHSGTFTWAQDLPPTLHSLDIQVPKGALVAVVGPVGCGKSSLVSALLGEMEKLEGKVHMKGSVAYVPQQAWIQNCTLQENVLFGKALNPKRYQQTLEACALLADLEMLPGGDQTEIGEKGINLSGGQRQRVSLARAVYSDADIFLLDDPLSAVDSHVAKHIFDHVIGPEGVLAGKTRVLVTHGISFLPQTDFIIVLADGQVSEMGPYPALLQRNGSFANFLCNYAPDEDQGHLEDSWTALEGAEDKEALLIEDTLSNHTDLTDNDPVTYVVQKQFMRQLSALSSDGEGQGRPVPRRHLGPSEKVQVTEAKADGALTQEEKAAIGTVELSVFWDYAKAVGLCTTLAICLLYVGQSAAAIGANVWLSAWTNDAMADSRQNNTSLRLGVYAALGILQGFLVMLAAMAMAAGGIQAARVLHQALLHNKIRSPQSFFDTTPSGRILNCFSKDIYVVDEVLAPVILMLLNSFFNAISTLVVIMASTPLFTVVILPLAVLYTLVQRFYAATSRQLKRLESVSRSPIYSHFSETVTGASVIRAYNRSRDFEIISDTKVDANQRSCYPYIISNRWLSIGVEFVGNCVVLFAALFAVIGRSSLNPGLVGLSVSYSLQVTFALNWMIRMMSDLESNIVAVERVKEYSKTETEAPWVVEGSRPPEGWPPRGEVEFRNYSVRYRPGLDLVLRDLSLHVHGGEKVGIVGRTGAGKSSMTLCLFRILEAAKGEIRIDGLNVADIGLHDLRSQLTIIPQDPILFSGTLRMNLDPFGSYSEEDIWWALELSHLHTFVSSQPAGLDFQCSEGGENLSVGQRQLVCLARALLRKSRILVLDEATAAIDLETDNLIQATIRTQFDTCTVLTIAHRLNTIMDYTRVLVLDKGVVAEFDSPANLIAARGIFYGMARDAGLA
protocolText: Inhibition of human MRP3 overexpressed in Sf9 insect cell membrane vesicles assessed as uptake of [3H]-estradiol-17beta-D-glucuronide in presence of ATP and GSH measured after 10 mins by membrane vesicle transport assay

Consider the worked cases shown below.
compound | observedMeasurement
O=C(O)CCCc1ccc(N(CCCl)CCCl)cc1 | > 133 µM
Cc1cc(NC(=O)C2=C(O)c3ccccc3S(=O)(=O)N2C)no1 | > 133 µM
OC(CCN1CCCC1)(c1ccccc1)C1CCCCC1 (centres undefined) | > 133 µM

Switching to the query record.
Can you look up IC50 on ATP-binding cassette sub-family C member 3 (Homo sapiens) for CO[C@H]1C[C@@H]2CC[C@@H](C)[C@@](O)(O2)C(=O)C(=O)N2CCCC[C@H]2C(=O)O[C@H]([C@H](C)C[C@@H]2CC[C@@H](OCCO)[C@H](OC)C2)CC(=O)[C@H](C)/C=C(\C)[C@@H](O)[C@@H](OC)C(=O)[C@H](C)C[C@H](C)/C=C/C=C/C=C/1C ? 84 µM

====

testedSystem: ATP-binding cassette sub-family C member 4 (Homo sapiens)
Sequence (O15439 whole entry): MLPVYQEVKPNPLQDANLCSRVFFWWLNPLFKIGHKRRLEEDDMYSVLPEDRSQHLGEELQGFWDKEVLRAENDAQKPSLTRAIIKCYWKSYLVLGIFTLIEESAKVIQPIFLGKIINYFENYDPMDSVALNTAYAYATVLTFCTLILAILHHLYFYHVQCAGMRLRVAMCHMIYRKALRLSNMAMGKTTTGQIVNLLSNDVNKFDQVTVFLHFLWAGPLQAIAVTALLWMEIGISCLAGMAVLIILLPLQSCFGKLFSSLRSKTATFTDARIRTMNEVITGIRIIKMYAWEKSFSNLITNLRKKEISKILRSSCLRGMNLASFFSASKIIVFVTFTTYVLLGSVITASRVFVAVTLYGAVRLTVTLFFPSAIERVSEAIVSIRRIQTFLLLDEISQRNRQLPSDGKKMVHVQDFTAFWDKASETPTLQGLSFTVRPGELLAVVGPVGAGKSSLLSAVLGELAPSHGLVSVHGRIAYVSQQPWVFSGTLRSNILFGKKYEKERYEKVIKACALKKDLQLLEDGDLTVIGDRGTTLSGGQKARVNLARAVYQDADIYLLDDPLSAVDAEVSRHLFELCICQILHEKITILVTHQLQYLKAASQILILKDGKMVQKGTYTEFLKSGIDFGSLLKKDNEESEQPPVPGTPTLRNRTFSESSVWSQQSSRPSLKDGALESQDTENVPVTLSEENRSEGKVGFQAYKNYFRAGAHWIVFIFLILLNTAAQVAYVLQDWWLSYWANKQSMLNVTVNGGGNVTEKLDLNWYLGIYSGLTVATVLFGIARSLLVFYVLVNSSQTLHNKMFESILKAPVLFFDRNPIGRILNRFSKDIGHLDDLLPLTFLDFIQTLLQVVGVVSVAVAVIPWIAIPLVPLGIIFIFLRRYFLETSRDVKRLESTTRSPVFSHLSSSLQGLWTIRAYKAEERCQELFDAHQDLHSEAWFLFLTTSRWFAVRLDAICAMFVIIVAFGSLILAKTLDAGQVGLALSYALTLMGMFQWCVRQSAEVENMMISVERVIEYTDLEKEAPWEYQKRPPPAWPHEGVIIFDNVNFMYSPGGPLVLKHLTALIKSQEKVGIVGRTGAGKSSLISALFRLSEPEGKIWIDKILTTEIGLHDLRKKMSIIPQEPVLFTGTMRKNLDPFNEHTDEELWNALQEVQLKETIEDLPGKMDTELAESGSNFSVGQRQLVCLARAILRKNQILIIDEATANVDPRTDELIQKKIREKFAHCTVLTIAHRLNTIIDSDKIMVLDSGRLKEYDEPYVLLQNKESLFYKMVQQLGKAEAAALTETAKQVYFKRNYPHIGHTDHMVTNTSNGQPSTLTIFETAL
protocolText: Inhibition of human MRP4 overexpressed in Sf9 cell membrane vesicles assessed as uptake of [3H]-estradiol-17beta-D-glucuronide in presence of ATP and GSH measured after 20 mins by membrane vesicle transport assay
Counter-ions that a name gives are not always drawn.
IC50: recorded values

Consider the worked cases shown below.
molecule | assayEndpoint | observedMeasurement
CN1CCN(CCCN2c3ccccc3Sc3ccc(Cl)cc32)CC1 | IC50 | > 133 µM
COc1cc2nc(N3CCN(C(=O)c4ccco4)CC3)nc(N)c2cc1OC | IC50 | 12.5 µM
COc1ccc(/C=C/C(=O)Nc2ccccc2C(=O)O)cc1OC | IC50 | 1 µM
O=C1NCCN1CCN1CCC(c2cn(-c3ccc(F)cc3)c3ccc(Cl)cc23)CC1 | IC50 | > 133 µM
Clc1ccccc1CN1CCc2sccc2C1 [TICLOPIDINE HYDROCHLORIDE] | IC50 | > 133 µM

Need IC50, item CC(C)(C)c1ccc(C(O)CCCN2CCC(C(O)(c3ccccc3)c3ccccc3)CC2)cc1 (stereo not given) > 133 µM

Need IC50, item COC(=O)[C@H]1[C@H]2C[C@@H]3c4[nH]c5cc(OC)ccc5c4CCN3C[C@H]2C[C@@H](OC(=O)c2cc(OC)c(OC)c(OC)c2)[C@@H]1OC > 133 µM

Need IC50, item CCOC(=O)C(C)(C)Oc1ccc(Cl)cc1 [CLOFIBRATE] > 133 µM

Need IC50, item O=C(O)c1cn(C2CC2)c2cc(N3CCNCC3)c(F)cc2c1=O > 133 µM

Need IC50, item CC[C@H](C)C(=O)O[C@H]1CCC=C2C=C[C@H](C)[C@H](CC[C@@H]3C[C@@H](O)CC(=O)O3)[C@H]21 > 133 µM

Need IC50, item CO[C@H]1/C=C/O[C@@]2(C)Oc3c(C)c(O)c4c(c3C2=O)C2=NC3(CCN(CC(C)C)CC3)NC2=C(NC(=O)/C(C)=C\C=C\[C@H](C)[C@H](O)[C@@H](C)[C@@H](O)[C@@H](C)[C@H](OC(C)=O)[C@@H]1C)C4=O 15.9 µM

Need IC50, item COC[C@H]1OC(=O)c2coc3c2[C@@]1(C)C1=C(C3=O)[C@@H]2CCC(=O)[C@@]2(C)C[C@H]1OC(C)=O 63.2 µM

Need IC50, item C#C[C@]1(O)CC[C@H]2[C@@H]3CCc4cc(O)ccc4[C@H]3CC[C@@]21C > 133 µM

Need IC50, item C[C@@H]1C[C@H]2[C@@H]3CCC4=CC(=O)C=C[C@]4(C)[C@@]3(F)[C@@H](O)C[C@]2(C)[C@@]1(O)C(=O)CO > 133 µM

Need IC50, item Cc1c(O)cccc1C(=O)N[C@@H](CSc1ccccc1)[C@H](O)CN1C[C@H]2CCCC[C@H]2C[C@H]1C(=O)NC(C)(C)C 97 µM
